- Tested on: DU-145 prostate
- test-protocol: NCI-60 one-dose screen, 48 h (100 = growth as untreated, 0 = no growth, -100 = all killed)
- test-parameters: 10 µM
- Method: Cells are grown in 96 well plates and exposed to the test compound for 48 hours. Compounds are tested at a single concentration, which is 10^-5 M for most compounds. The reported endpoint is percent growth (GI% or GIPRCNT), where numbers from 0 - 100% represent growth inhibition, and numbers from -100% - 0 represent cell death. For example, a value of 40 represents 60% growth inhibition. A value of 0 means no net growth occurred over the course of the experiment. […]
About 83,000 compounds went through this panel and 20% of them were active in at least one assay; those are over-represented in the sample as a whole.
For each entry below, report its growth value.
One number for each entry, in %.

# batch: return growth for each of the 5 molecules below
1. Clc1nc2ccccc2cc1Cn1nnc(Cc2ccccc2)n1
2. CCOC(=O)c1sc2ncnc(Nc3ccc(NC(=O)Nc4ccc(Cl)cc4)cc3)c2c1C
3. CC(C)CCN(CCC(C)C)CC(=O)Nc1ccc(S(=O)(=O)c2ccc(NC(=O)CN(CCC(C)C)CCC(C)C)cc2)cc1
4. CC(=O)Nc1ccc(S(=O)(=O)c2ccnc3cc(Cl)ccc23)cc1
5. COc1ccc(-c2cc(-c3cc(OC)ccc3OC)nc(N)c2C#N)cc1

1. 75.2
2. 54
3. 54
4. 53.7
5. 96.2

# batch: return growth for each of the 4 molecules below
1. O=C(CC(CC(=O)c1ccccc1)c1ccccc1O)c1ccccc1
2. Nc1cc(Br)c(-c2nn3c(CCC(=O)c4nc5ccccc5[nH]4)nnc3s2)c(Br)c1
3. CN(C)CCC1(c2ccccc2)CCN(C)C1=O (stereo not given)
4. c1cnc2[nH]cc(-c3nc(-c4ccsc4)cs3)c2c1

103
102
107
98.8

Query: growth; subject: Nc1ccc(CC[C@H]2CCC/C=C/[C@@H]3C[C@H](O)C[C@H]3[C@H](O)/C=C/C(=O)O2)cc1 16.2
